Hey, just so you know, these numbers are from ChEMBL document CHEMBL3244164.

Test system: Rattus norvegicus
ASSAY_OVERVIEW: Antiinflammatory activity in Sprague-Dawley rat assessed as inhibition of carrageenan-induced paw edema at 30 mg/kg, po
Type: functional
Let's look at some compounds and their measured inhibition in vivo at 30 mg/kg.
READOUT_NAME: inhibition in vivo at 30 mg/kg (%)

GIVEN_SMILES: CCCCC1C(=O)N(c2ccccc2)N(c2ccccc2)C1=O
RESULT_UNIT: %
RECORDED_RESULT: 39
--
GIVEN_SMILES: O=c1[nH]c2cccnc2n1-c1ccc2c(c1)OCO2
RESULT_UNIT: %
RECORDED_RESULT: 37
--
GIVEN_SMILES: C=CCn1c(=O)n(-c2ccc3c(c2)OCO3)c2ncccc21
RESULT_UNIT: %
RECORDED_RESULT: 42
--
GIVEN_SMILES: CCC(=O)O[C@](Cc1ccccc1)(c1ccccc1)[C@H](C)CN(C)C
RESULT_UNIT: %
RECORDED_RESULT: 23

----------
System: Rattus norvegicus
ASSAY_OVERVIEW: Analgesic activity in Sprague-Dawley rat brewer's yeast treated foot assessed as response threshold at 32 mg/kg, po
Assay type: functional

GIVEN_SMILES: CC(C)c1ccccc1-n1c(=O)[nH]c2cccnc21
Activity: <25 mm
--
GIVEN_SMILES: N#Cc1ccccc1-n1nnc2cccnc21
Activity: 25 mm
--
GIVEN_SMILES: O=c1[nH]c2cccnc2n1-c1ccc2c(c1)CCC2
Activity: <25 mm
--
GIVEN_SMILES: CCOC(=O)n1c(=O)n(-c2ccc3c(c2)OCO3)c2ncccc21
Activity: <25 mm

----------
Let's look at some molecules and their measured Activity.
System: Rattus norvegicus
ASSAY_OVERVIEW: Analgesic activity in Sprague-Dawley rat brewer's yeast treated foot assessed as response threshold at 32 mg/kg, po
Format: functional
READOUT_NAME: Activity

GIVEN_SMILES: c1ccc(-c2nc3cccnc3n2-c2ccc3c(c2)OCO3)cc1
RECORDED_RESULT: <25 mm

GIVEN_SMILES: c1cnc2c(c1)nnn2-c1ccncc1
RECORDED_RESULT: <25 mm

GIVEN_SMILES: Fc1ccccc1-n1nnc2cc(Cl)cnc21
RECORDED_RESULT: 25 mm

GIVEN_SMILES: C=CCn1c(=O)n(-c2ccc(OC)c(OC)c2)c2ncccc21
RECORDED_RESULT: <25 mm

GIVEN_SMILES: Cc1ccc(-n2nnc3cccnc32)cc1C
RECORDED_RESULT: <25 mm

GIVEN_SMILES: S=c1[nH]c2cccnc2n1-c1ccc2c(c1)OCO2
RECORDED_RESULT: <25 mm

GIVEN_SMILES: C=CCn1c(=O)n(-c2ccc3c(c2)COCO3)c2ncccc21
RECORDED_RESULT: <25 mm

GIVEN_SMILES: CCc1ccc(-n2c(=O)[nH]c3cccnc32)cc1
RECORDED_RESULT: <25 mm

GIVEN_SMILES: Clc1ccccc1-n1nnc2cccnc21
RECORDED_RESULT: 25 mm

GIVEN_SMILES: O=c1[nH]c2cccnc2n1-c1ccc(Oc2ccccc2)cc1
RECORDED_RESULT: <25 mm

GIVEN_SMILES: C=CCn1c(=O)n(-c2ccccc2F)c2ncncc21
RECORDED_RESULT: <25 mm

GIVEN_SMILES: Fc1ccc(-n2nnc3cccnc32)cc1
RECORDED_RESULT: <25 mm

GIVEN_SMILES: Fc1ccccc1Cn1nnc2cccnc21
RECORDED_RESULT: <25 mm

GIVEN_SMILES: Brc1ccccc1-n1nnc2cccnc21
RECORDED_RESULT: 25 mm

GIVEN_SMILES: O=c1[nH]c2cccnc2n1-c1ccccc1F
RECORDED_RESULT: 25 mm

GIVEN_SMILES: O=c1n(C2=NCCS2)c2cccnc2n1-c1ccc2c(c1)OCO2
RECORDED_RESULT: <25 mm

GIVEN_SMILES: CC(=O)OCCn1c(=O)n(-c2ccc3c(c2)OCO3)c2ncccc21
RECORDED_RESULT: 25 mm

GIVEN_SMILES: Cc1ccc(-n2c(=O)[nH]c3cccnc32)cc1C
RECORDED_RESULT: <25 mm

GIVEN_SMILES: c1cnc2c(c1)nnn2-c1ccc2c(c1)COCO2
RECORDED_RESULT: <25 mm

GIVEN_SMILES: CC(=O)Oc1ccccc1C(=O)O
RECORDED_RESULT: 25 mm

GIVEN_SMILES: O=c1[nH]c2cccnc2n1-c1ccc2c(c1)COC2
RECORDED_RESULT: <25 mm

GIVEN_SMILES: CC(C)=O.O=C(Cn1c(=O)n(-c2ccc3c(c2)OCO3)c2ncccc21)c1ccccc1
RECORDED_RESULT: <25 mm

GIVEN_SMILES: Oc1ccccc1-n1nnc2cccnc21
RECORDED_RESULT: <25 mm

GIVEN_SMILES: C=CCn1c(=O)n(-c2cccc3c2CCCC3)c2ncccc21
RECORDED_RESULT: <25 mm

GIVEN_SMILES: COc1ccc(-n2c(=O)[nH]c3cccnc32)c(OC)c1
RECORDED_RESULT: <25 mm

GIVEN_SMILES: O=c1[nH]c2cccnc2n1-c1ccc2c(c1)COCO2
RECORDED_RESULT: <25 mm
